I'd be grateful if you could share measured pEC50 for these entries.
- TEST SYSTEM: human VPAC1 (Homo sapiens, UniProt P32241)
- Sequence (P32241 31-457): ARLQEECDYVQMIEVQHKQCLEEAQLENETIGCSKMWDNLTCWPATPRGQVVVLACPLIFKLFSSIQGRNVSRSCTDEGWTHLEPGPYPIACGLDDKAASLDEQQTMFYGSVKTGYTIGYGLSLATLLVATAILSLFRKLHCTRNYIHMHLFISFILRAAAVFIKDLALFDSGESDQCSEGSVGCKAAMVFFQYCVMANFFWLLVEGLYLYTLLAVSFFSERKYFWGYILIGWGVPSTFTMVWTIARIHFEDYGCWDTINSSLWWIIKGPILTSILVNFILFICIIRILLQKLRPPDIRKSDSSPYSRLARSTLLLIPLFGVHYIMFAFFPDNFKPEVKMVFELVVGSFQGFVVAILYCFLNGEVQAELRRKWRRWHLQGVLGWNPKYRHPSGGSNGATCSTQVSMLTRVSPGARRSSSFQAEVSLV
- PROTOCOL NOTES: DiscoveRx cAMP in vitro potency, CHO-PO cells transiently transfected with human VPAC1 receptor
- Assay type: cell-based
- Set-up: expressed in transfected cells; host or cells: CHO-PO, transient (Lipofectamine)
- CONDITION CONTEXT: cAMP generation; mean of two independent runs; read-out: Human VPAC1 Receptor: DiscoveRx EC50
pEC50: −log10 of the molar value. Where no end group is shown, it is not given here.

1) H-HSDAVTTDNYTRLRKQVAAKKYLQSIKNKRYGGPSSGAPPPS [Agonist P65]
< 6.00
2) HSDAVVTDNYTRLRKQVAAKKYLQSIKNKRYGGPSSGAPPPS [Agonist P66]
> 6.00

Field: next substance
Task: Please tell me: pEC50 of HSDAVITDNYTRLRKQVAAKKYLQSIKNKRYGGPSSGAPPPS [Agonist P63] , system human VPAC1 (Homo sapiens, UniProt P32241)?
Output: < 6.00

----------
- TEST SYSTEM: human VPAC1 (Homo sapiens)
- PROTOCOL NOTES: Filter binding assay, membranes of cells transiently transfected with human VPAC1, 125I-labeled VIP tracer (Table 2)
- Design: expressed in transfected cells
- CONDITION CONTEXT: read-out: Human VPAC1 Receptor Binding
pIC50: −log10 of the molar value. Where no end group is shown, it is not given here. [ ]: non-standard residue; d: D form. The star is where a group is joined. Orn = NCCC[C@H](N)C(=O)O; Hexanoyl = CCCCCC(=O)*; Aib = CC(C)(N)C(=O)O
MEASURED PARAMETER: pIC50

Known pIC50 results, listed for orientation:
1. Hexanoyl-HSDAVFTDNYTRLA[Aib]QVAA[Aib]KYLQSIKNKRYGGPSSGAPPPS [Agonist P301]
< 5.52
2. Hexanoyl-HSDAVFTDNYTRLL[Aib]QVAA[Aib]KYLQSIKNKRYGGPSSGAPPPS [Agonist P317]
< 5.52
3. Hexanoyl-HSDAVFTDNYTRLQ[Aib]QVAAKKYLQSIKNKRYGGPSSGAPPPS [Agonist P258]
< 5.52

Please report pIC50 for every entry that follows.
1. Hexanoyl-HSDAVFTDNYTRLR[Aib]QVAAK[Aib]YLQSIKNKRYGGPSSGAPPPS [Agonist P264]
2. Hexanoyl-HSDAVFTDNYTRL[Aib]KQLAA[Aib]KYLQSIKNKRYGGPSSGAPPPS [Agonist P240]
3. Hexanoyl-HSDAVFTDNYTRL[Orn][Aib]QVAA[Aib]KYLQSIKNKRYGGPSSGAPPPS [Agonist P319]

Output:
< 5.52
< 5.52
< 5.52

Value source: patent US20080026996A1
